Documented kon across a set of binders
Measured Target: T1, TIGIT (UniProt Q495A1 22-141, limits assumed)
T1 construct: also called T cell immunoreceptor with Ig and ITIM domains; hTIGIT
T1 sequence (looked up): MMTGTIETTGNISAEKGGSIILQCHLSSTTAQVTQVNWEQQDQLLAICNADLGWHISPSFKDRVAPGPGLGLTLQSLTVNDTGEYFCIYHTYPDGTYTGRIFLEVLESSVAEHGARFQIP
Protocol Notes: SPR (Carterra)
Outcome Measure: kon (M⁻¹ s⁻¹)

Binder	Endpoint Unit	Recorded Measurement
TIGIT-211-28 (antibody, V domains shown) VH: EVQLLESGGGLVQPGGSLRLSCAASGFTFSTYAMSWVRQAPGKGLEWVSEISPSGGYTYYADSVKGRFTISRDNSKNTLYLQMNSLRAEDTAVYYCAKVKLGGGPNFDYWGQGTLVTVSS VL: DIQMTQSPSSLSASVGDRVTITCQGASLRNYYASWYQQKPGKAPKLLIYDTSKVASGVPSRFSGSGSGTDFTLTISSLQPEDFATYYCFQGSHIPYTFGQGTKVEIK	M⁻¹ s⁻¹	25400
TIGIT-211-57 (antibody, V domains shown) VH: EVQLLESGGGLVQPGGSLRLSCAASGLTFPNYGMGWVRQAPGKGLEWVSAISREGRATYYADSVKGRFTISRDNSKNTLYLQMNSLRAEDTAVYYCARVIAAAGAFDYWGQGTLVTVSS VL: DIQMTQSPSSLSASVGDRVTITCRSSQSLVHSTGNTYLHWYQQKPGKAPKLLIYGKNIRPSGVPSRFSGSGSGTDFTLTISSLQPEDFATYYCQQSYTTPWTFGQGTKVEIK	M⁻¹ s⁻¹	30800
